# Test system: HSV-1
# Experiment Notes: HSV Antiviral (ELISA) Assay in Vero cells
# Format: cell-based, herpes simplex virus type 1
# Settings: Human alphaherpesvirus 1; HSV-1, Vero cells; read-out: IC50 (ug/ml) HSV
Record form. Attribute: IC50. Fill in for each entry.

**Query** Read off the recorded IC50 for `O=C(Nc1ccc(NC(=S)Nc2ccccc2Cl)cc1)c1ccccc1F`
**Result** 6 µg/mL

**Query** Return value of IC50 for input `COc1cc(C)c(Cl)cc1NC(=S)Nc1ccc(NC(=O)c2ccccc2F)cc1` , no commentary.
**Result** > 10 µg/mL

**Query** Recall and state the measured IC50 for `COCCOc1ccc(NC(=S)Nc2ccc(NC(=O)c3ccccc3F)cc2)cc1Cl` .
**Result** > 10 µg/mL

**Query** Write down IC50 measured for item `O=C(Nc1ccc(NC(=S)Nc2ccc(Cl)cc2)cc1)c1ccccc1F`
**Result** > 10 µg/mL

**Query** Find the measured IC50 of CC(NC(=S)Nc1ccc(NC(=O)c2cc3ccccc3o2)cc1)c1ccc(C#N)cc1 (centres unmarked) and report it.
**Result** > 10 µg/mL

**Query** Please report the measured IC50 for `COc1ccc(C(=O)Nc2ccc(NC(=S)Nc3cc(Cl)c(OC)c(Cl)c3)cc2)cc1`
**Result** > 10 µg/mL

**Query** Note IC50 for the molecule shown: `O=C(Nc1ccc(NC(=S)Nc2ccc(F)c(Cl)c2)cc1)c1ccccc1F`
**Result** 1 µg/mL

**Query** Supply IC50 value. Item: CC(NC(=S)Nc1ccc(NC(=O)c2ccccc2F)cc1)c1cccc(C#N)c1 (centres unmarked)
**Result** > 10 µg/mL
